Tested on: OVCAR-5 ovarian
Assay: NCI-60 one-dose screen, 48 h
Conditions: 10 µM unless noted
Compounds without any hit were thinned out: in the full panel of roughly 83,000, 20% have a hit. Activity calls are given as the source filed them. The calls were made as follows: active = growth percent below 10; inactive = the rest.
// allowed return values: true for active, false for inactive

Recorded results for 5 compounds are shown here.
>  <compound>
Nc1c(C(=O)Nc2ccccc2)sc2nc3c(cc12)CN(CCc1ccccc1)CC3

>  <assayTarget>
OVCAR-5 ovarian

>  <classLabel>
false

$$$$
>  <compound>
O=C1c2cccnc2C(=O)c2c1c(C(=O)OCCN1CCCCC1)c1ccccn21

>  <assayTarget>
OVCAR-5 ovarian

>  <classLabel>
true

$$$$
>  <compound>
O=C(CCCCN1CCOCC1)Nc1ccc(Cn2nnc3c2C(=O)c2nnn(Cc4ccc(NC(=O)CCCCN5CCOCC5)cc4)c2C3=O)cc1

>  <assayTarget>
OVCAR-5 ovarian

>  <classLabel>
true

$$$$
>  <compound>
Cc1ccc2c(NCCCN(C)C)c3c(C)nn(C)c3nc2c1

>  <assayTarget>
OVCAR-5 ovarian

>  <classLabel>
false

$$$$
>  <compound>
CC/C(Cc1ccccc1)=C(\c1ccc(OCCN2CCCC2)cc1)c1ccc(OC(C)=O)cc1

>  <assayTarget>
OVCAR-5 ovarian

>  <classLabel>
false

$$$$

Query :: Assay result, entry Cc1nc2sc(C(=O)Nc3cccc4c3OCCO4)c(N)c2cc1C(C)O (stereo not drawn) — outcome?
Result :: false

Query :: Repeat with `CN(C)C(=O)c1cc2cnc(Nc3ccc(-c4csc5c(=O)cc(N6CCNCC6)oc45)cc3)nc2n1C1CCCC1`
Result :: false

Query :: Also need `COC(/C=C/c1ccc([N+](=O)[O-])cc1)OC` , thanks.
Result :: false

Query :: Also check `COc1ccc(-n2cc(-c3ccccc3)c3c(SCC(=O)N/N=C/c4ccc([N+](=O)[O-])cc4)ncnc32)cc1`
Result :: false

Query :: Query `Cc1cc2cc3cc(C)c(N(C)C)cc3nc2cc1N(C)C` next
Result :: false

Cited source: PubChem BioAssay (NCI)
